Test system: MALME-3M melanoma
Assay: NCI-60 one-dose screen, 48 h
Conditions: 10 µM unless noted
Compounds without any hit were thinned out: in the full panel of roughly 83,000, 20% have a hit. Calls of active or inactive are those of the source. Rule for the calls: active = growth percent below 10; inactive = the rest.
Returns: one label drawn from active, inactive

Look over these answered cases.
- Compound: "CC(C)(C)C(=O)CCCCCCCC/C=C/CCCC(O)c1ccco1 (configuration not stated)"
  Discrete label: "inactive"
- Compound: "CCCCCCC(C(=O)OCC)(C(=O)OCC)C1CCCCCC1"
  Discrete label: "inactive"
- Compound: "Cc1ncc(C(=O)Nc2ccc(CN3CCN(C)CC3)c(C(F)(F)F)c2)cc1C#Cc1c(N)ncc2ccc(F)cc12"
  Discrete label: "active"
- Compound: "C=CCSc1nnc(COc2ccc3c(C)c(Cc4ccccc4)c(=O)oc3c2C)o1"
  Discrete label: "inactive"
- Compound: "C/C=C(/C)C(=O)OC1C=C(CO)C(=O)C(OC(=O)C2(C)OC2C)C1C(C)C (configuration not stated)"
  Discrete label: "active"
- Compound: "C[C@]12CC[C@H]3[C@@H](CC[C@H]4C[C@@H](O)CC[C@@]43C)[C@@H]1CC(=O)C2"
  Discrete label: "inactive"

Called result for CCCCCCCCCCCCCCCCC(=O)O.CCCCCCCCCCCCCCCCCC(=O)O.CCCCCCCCCCCCCCCCCC(=O)O.CCCCCCCCCCCCCCCCCC(=O)O.CCCCCCCCCCCCCCCCCC(=O)O.CO[CH-]OC12COC1CC(O)C1(C)C(O)C(OC(C)O)C3=C(C)C(OC(=O)C(O)C([NH-])c4ccccc4)CC(O)(C(OC(=O)c4ccccc4)C21)C3(C)C.[Cu+].[Zn].[Zn].[Zn].[Zn].[Zn] (configuration not stated)
inactive

* * *

Test system: HCT-15 colon
Assay: NCI-60 one-dose screen, 48 h (100 = growth as untreated, 0 = no growth, -100 = all killed)
Settings: 10 µM unless noted
This is part of a sample that, as a whole, favours compounds with a hit. Of some 83,000 tested, about 20% had one in any assay.
Attribute: growth
Express it in %; write the number only.

Fill in growth for record COC1(OC)N=C(N)C2(C#N)C3(C(=O)Nc4ccccc43)C12C#N (stereo unspecified)
83.8

* * *

growth overview
Test system: SR leukemia
Test: NCI-60 one-dose screen, 48 h (100 = growth as untreated, 0 = no growth, -100 = all killed)
Conditions: 10 µM unless noted
Description: Growth inhibition of the SR human tumor cell line is measured as a screen for anti-cancer activity. Cells are grown in 96 well plates and exposed to the test compound for 48 hours. Compounds are tested at a single concentration, which is 10^-5 M for most compounds. The reported endpoint is percent growth (GI% or GIPRCNT), where numbers from 0 - 100% represent growth inhibition, and numbers from -100% - 0 represent cell death. For example, a value of 40 represents 60% growth inhibition. […]
About 83,000 compounds went through this panel and 20% of them were active in at least one assay; those are over-represented in the sample as a whole.
Numbers only; they are read as %.

Reference set, count: 10
- Compound: "Cc1nc2c(nnn2-c2ccccc2)c2nc(-c3ccc(Cl)cc3)oc(=O)c12"
  growth [%]: 103
- Compound: "CC(=O)Nc1ccc(CC#N)cc1Br"
  growth [%]: 112
- Compound: "O=C(/C=C1\\C(=O)N(Cc2ccccc2)c2ccccc21)c1ccc(OCCN2CCCCC2)cc1"
  growth [%]: -21.6
- Compound: "N=c1c2c(=O)n3c(nc2nc2sc4ccc(Cl)cc4n12)-c1ccccc1Sc1ccccc1-3"
  growth [%]: 5.86
- Compound: "CC1C(=O)CCCC1=O"
  growth [%]: 97.6
- Compound: "O=C(O)c1ccc(-c2nn(-c3ccc(C(=O)O)cc3)cc2CNc2ccc(Br)cc2)cc1"
  growth [%]: 107
- Compound: "CC(O)c1cc[cH-]c1.[Fe+2].c1cc[cH-]c1 (stereo not drawn)"
  growth [%]: 90.2
- Compound: "Oc1ccc(Br)cc1/C=N/NC(=S)NC12CC3CC(CC(C3)C1)C2"
  growth [%]: -7.5
- Compound: "O=C1C(Br)=CC2C1C1C3CCC3C2(Br)C12OCCO2 (stereo not drawn)"
  growth [%]: 4.59
- Compound: "O=C1c2ccccc2CCc2ccccc21"
  growth [%]: 104

Input N#Cc1c2ncccc2c2nnc3cc(Cl)c(Cl)cc3n12 , output reported growth.
70.2

Look up growth of COc1ccc(OC)c(Cn2cc3c(c2-c2ccccc2)CCc2cnoc2-3)c1 and report it.
22

Please look at this compound and report its growth: NCCCOc1cc(Cl)ccc1NC(=O)c1cc2ccccc2cc1OCCCN
-38.9

Entry COC(=O)C(C(=O)OC)C(Br)C(Br)C(Br)c1ccccc1 (stereo not drawn) needs its growth filled in; supply it.
-10

Tell me measured growth for COc1cc(-c2nc3c(c(C)nc4c3nnn4-c3ccccc3)c(=O)o2)cc(OC)c1OC please.
108

Respond only with growth recorded for NC(=O)c1c(Nc2ccccc2)nn2cc(-c3nc4ccccc4s3)c(N)nc12
82.8

* * *

System: ACHN renal
Assay: NCI-60 one-dose screen, 48 h (100 = growth as untreated, 0 = no growth, -100 = all killed)
Conditions: 10 µM unless noted
The panel holds about 83,000 compounds, 20% with a hit somewhere; the sample as a whole holds those more often.
Returns TRUE if the recorded growth is greater than or equal to 90%, and FALSE otherwise.

See these solved cases before continuing.
- Compound: "CCCCCCCCCCC(C[N+](C)(C)C/C=C/c1ccccc1)C(O)c1ccccc1 (stereo unspecified)"
  Discrete label: "FALSE"
- Compound: "Oc1ccc2ccccc2c1/C=N\\Nc1ccccn1"
  Discrete label: "FALSE"
- Compound: "CC(C)(C)C(=O)CCCCCCCC/C=C/CCCC(O)c1ccco1 (stereo unspecified)"
  Discrete label: "TRUE"
- Compound: "CC(=O)N(N=O)c1ccc([N+](=O)[O-])cc1Cl"
  Discrete label: "FALSE"
- Compound: "CCCC(=O)NNc1[nH]c(-c2cc(OC)c(OC)c(OC)c2)cc1C(=O)OCC"
  Discrete label: "FALSE"

Hello, I need to know if CC/C(=N\Nc1nc2ccccc2n1C)c1ccccn1 has measured growth not below 90%. Thanks!
FALSE

# bool: growth of Cc1ccnc2c(NC(C)CCCN)cc(O)c(O)c12 (stereo unspecified) >= 90%
TRUE

Exam item: decide whether the reported growth for O=C(Nc1ccc(-n2cc(-c3ccncc3)c(-c3ccc(Cl)c(O)c3)n2)cc1)c1ccc(Cl)c(Cl)c1 is at least 90%.
FALSE

Hello, I need to know if Cc1ccc(C(=O)Nc2ccc(CN3CCN(C)CC3)c(C(F)(F)F)c2)cc1C#Cc1cncc2ncccc12 has measured growth not below 90%. Thanks!
FALSE

* * *

Test system: A549/ATCC NSCLC
Assay: NCI-60 one-dose screen, 48 h (100 = growth as untreated, 0 = no growth, -100 = all killed)
Conditions: 10 µM unless noted
This is part of a sample that, as a whole, favours compounds with a hit. Of some 83,000 tested, about 20% had one in any assay.
// classify: if (growth < 90%) fulfilled else not fulfilled

See these solved cases before continuing.
- Compound: "O=C1c2cc([N+](=O)[O-])ccc2-c2cc(Cl)c(NC(=O)C(F)(F)F)cc21"
  Discrete label: "not fulfilled"
- Compound: "N=C(N)N=Nc1ccc(NN=C(N)N)cc1"
  Discrete label: "fulfilled"
- Compound: "CCCCCCNC(=O)Oc1ccc(/C(=C(/C)Cc2ccc(OC)cc2)c2ccc(OCCN3CCCCC3)cc2)cc1"
  Discrete label: "fulfilled"

Just wondering, is growth of O=C(N/N=C/c1ccccc1Cl)c1cccc2ccccc12 below 90%?
not fulfilled

In plain terms, does COc1cccc2c1n([O-])c1cccc(OC)c1[n+]2=O come in under 90% for growth?
fulfilled

# strict comparison: is reported growth < 90%? input = O=C1C(=O)c2ccccc2C(O)=C1CCCc1ccc(C2CCCC2)cc1
fulfilled

Hi there! Is growth for COc1ccc2sc(-n3nc4nc5n(c(=O)c4c3N)-c3ccccc3Sc3ccccc3-5)nc2c1 below 90%, do you know?
fulfilled

Hi there! Is growth for O=C1C(Cl)=C(Nc2ccc(Nc3ccccc3)c(NC3=C(Cl)C(=O)c4ccccc4C3=O)c2)C(=O)c2ccccc21 below 90%, do you know?
not fulfilled

Please indicate whether the reported growth of COC(=O)CC(=O)C(=O)OC is strictly below 90%.
not fulfilled

Lab note: growth threshold 90%. Does this compound come in strictly under it? NNC(=S)N1N=C(c2cc3ccccc3o2)CC1c1c[nH]c2ccccc12 (stereo not given)
fulfilled

* * *

Documented growth across a set of compounds
System: NCI/ADR-RES ovarian
Assay: NCI-60 one-dose screen, 48 h (100 = growth as untreated, 0 = no growth, -100 = all killed)
Details: 10 µM unless noted
This is part of a sample that, as a whole, favours compounds with a hit. Of some 83,000 tested, about 20% had one in any assay.
Write the number in % without appending the unit.

Find the measured growth of CC(O)C(N)=O (stereo not drawn) with NCI/ADR-RES ovarian as test system.
118

Return reported growth for target or system NCI/ADR-RES ovarian, item C=CCNCCC#N .
117

Param request: growth | system NCI/ADR-RES ovarian | item COc1cc2cc3cc4cc(OC)c(OC)cc4c(C)[n+]3cc2cc1OC (tested in a mixture with another compound)
93.1

Report measured growth on NCI/ADR-RES ovarian; entry: CCN(CC)CCOC(=O)c1cccnc1
101

Enter recorded growth with NCI/ADR-RES ovarian for COc1cc(C(=O)Nc2ccc(N(C)C)cc2)cc(OC)c1OC here.
87.3

For NCI/ADR-RES ovarian, give growth of the listed compound: CC(=O)c1ccc2c(c1)c1ccccc1n2C
91.2

Report measured growth on NCI/ADR-RES ovarian; entry: Cc1ccccc1-n1c(C)nc2cc(NC(=O)c3ccc(Cl)cc3)ccc2c1=O
82.4

Tell me growth of CCCCCCNC(=O)Oc1ccc(/C(=C(/C)Cc2ccc(OC)cc2)c2ccc(OCCN(C)C)cc2)cc1 when tested on NCI/ADR-RES ovarian.
78.3

Please look at N=C(c1ccccc1)N(Cc1ccccc1)Cc1ccccc1 and tell me its recorded growth on NCI/ADR-RES ovarian.
99.8
